Origin of the recorded values: patent US20260317344A1

test target: EGFR (L858R/T790M) (Homo sapiens, UniProt P00533, L858R/T790M)
Sequence (P00533 25-1210 T790M/L858R): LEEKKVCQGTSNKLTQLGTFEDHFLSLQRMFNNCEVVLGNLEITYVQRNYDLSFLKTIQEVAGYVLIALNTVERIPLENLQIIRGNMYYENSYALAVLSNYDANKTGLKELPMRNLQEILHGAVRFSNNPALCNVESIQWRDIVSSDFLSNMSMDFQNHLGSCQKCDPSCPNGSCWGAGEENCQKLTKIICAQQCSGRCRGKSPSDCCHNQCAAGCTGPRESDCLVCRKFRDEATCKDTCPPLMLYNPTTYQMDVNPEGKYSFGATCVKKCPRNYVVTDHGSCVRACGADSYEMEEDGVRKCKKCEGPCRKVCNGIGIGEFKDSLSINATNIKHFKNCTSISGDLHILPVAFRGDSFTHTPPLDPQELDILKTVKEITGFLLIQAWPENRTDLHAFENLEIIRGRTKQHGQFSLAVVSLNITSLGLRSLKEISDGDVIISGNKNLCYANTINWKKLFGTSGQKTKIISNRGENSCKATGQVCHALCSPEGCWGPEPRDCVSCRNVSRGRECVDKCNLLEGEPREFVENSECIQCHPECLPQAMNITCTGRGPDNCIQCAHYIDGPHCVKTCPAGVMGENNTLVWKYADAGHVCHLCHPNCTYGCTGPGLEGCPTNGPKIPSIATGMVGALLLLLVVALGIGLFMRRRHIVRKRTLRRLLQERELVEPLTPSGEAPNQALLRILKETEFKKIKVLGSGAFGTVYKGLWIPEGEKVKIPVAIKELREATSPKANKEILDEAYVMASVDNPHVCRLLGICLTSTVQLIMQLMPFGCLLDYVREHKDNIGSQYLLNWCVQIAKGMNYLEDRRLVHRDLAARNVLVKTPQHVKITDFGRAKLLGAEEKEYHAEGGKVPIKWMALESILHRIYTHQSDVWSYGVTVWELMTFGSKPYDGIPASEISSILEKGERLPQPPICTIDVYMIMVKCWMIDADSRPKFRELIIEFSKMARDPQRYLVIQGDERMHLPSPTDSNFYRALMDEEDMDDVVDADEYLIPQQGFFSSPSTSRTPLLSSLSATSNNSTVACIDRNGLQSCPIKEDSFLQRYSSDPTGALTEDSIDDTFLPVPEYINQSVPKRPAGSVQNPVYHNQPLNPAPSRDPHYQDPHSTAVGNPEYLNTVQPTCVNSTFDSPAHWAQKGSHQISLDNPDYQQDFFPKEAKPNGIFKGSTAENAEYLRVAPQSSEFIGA
assay info: HotSpot radiometric kinase assay, inhibition of EGFR L858R/T790M mutant
measurement context: 33P ATP, room temperature, 120 m
measure: pIC50
Answers are plain numbers, as −log10 of the molar value.

Solved entries (count: 3):
CCOc1nn([C@@H](C)CO)c2c1/C=C/c1n[nH]c3cnc(cc13)-c1cnn(C)c1O[C@@H](C)CN(C)C2 [Ex. 19] = 9.43
CCN1Cc2c(c(C)nn2CCO)/C=C/c2n[nH]c3cnc(cc23)-c2c(C)nn(C)c2O[C@@H](C)C1 [Ex. 13] = 9.70
CCOc1nn(CCO)c2c1/C=C/c1n[nH]c3cnc(cc13)-c1cnn(C)c1OC[C@H](C)N(CC)C2 [Ex. 7] = 9.55

Record pIC50 for all entries; do not skip any.
1. CCOc1nn([C@@H](C)CO)c2c1/C=C/c1n[nH]c3cnc(cc13)-c1c(C)nn(C)c1O[C@@H](C)CN(C)C2 [Ex. 27]
2. CCOc1nn(CCO)c2c1/C=C/c1n[nH]c3c(C)nc(cc13)-c1cnn(C)c1O[C@@H](C)CN(CC)C2 [Ex. 28]

Reply:
[9.29, 9.34]

Record pIC50 for all entries; do not skip any.
1. Cc1nn(C)c2c1-c1cc3c(n[nH]c3cn1)/C=C/c1c(OCC#N)nn(CCO)c1CN(C)C[C@H](C)O2 [Ex. 22]
2. CCOc1nn(CCO)c2c1/C=C/c1n[nH]c3cnc(cc13)-c1cnn(C)c1O[C@H](C)CN(CC)C2 [Ex. 6]
3. CCOc1nn(CCO)c2c1/C=C/c1n[nH]c3c(C)nc(cc13)-c1cnn(C)c1O[C@@H](C)CN(C)C2 [Ex. 29]
4. CC(C)Oc1nn(CCO)c2c1/C=C/c1n[nH]c3cnc(cc13)-c1cnn(C)c1O[C@@H](C)CN(C)C2 [Ex. 5]
5. Cc1nn(CCO)c2c1/C=C/c1n[nH]c3cnc(cc13)-c1c(C)nn(C)c1O[C@@H](C)CN(C(C)C)C2 [Ex. 21]
6. CCOc1nn(CCO)c2c1/C=C/c1n[nH]c3cnc(cc13)-c1c(C)nn(C)c1OC[C@@H](C)N(CC)C2 [Ex. 18]
7. CCOc1nn(CCO)c2c1/C=C/c1n[nH]c3cnc(cc13)-c1cnn(C)c1O[C@H](C)CN(C(C)C)C2 [Ex. 12]
8. CCOc1nn(CCO)c2c1/C=C/c1n[nH]c3cnc(cc13)-c1c(C)nn(C)c1O[C@H](C)CN(C(C)C)C2 [Ex. 1]

Reply:
1: 9.14; 2: 9.82; 3: 9.52; 4: 9.96; 5: 9.30; 6: 8.95; 7: 9.37; 8: 8.74

###

test target: pEGFR, A431 cells (wildtype EGFR) (Homo sapiens)
Construct: pEGFR (Tyr1068) TR-FRET
Sequence (P00533 25-1210): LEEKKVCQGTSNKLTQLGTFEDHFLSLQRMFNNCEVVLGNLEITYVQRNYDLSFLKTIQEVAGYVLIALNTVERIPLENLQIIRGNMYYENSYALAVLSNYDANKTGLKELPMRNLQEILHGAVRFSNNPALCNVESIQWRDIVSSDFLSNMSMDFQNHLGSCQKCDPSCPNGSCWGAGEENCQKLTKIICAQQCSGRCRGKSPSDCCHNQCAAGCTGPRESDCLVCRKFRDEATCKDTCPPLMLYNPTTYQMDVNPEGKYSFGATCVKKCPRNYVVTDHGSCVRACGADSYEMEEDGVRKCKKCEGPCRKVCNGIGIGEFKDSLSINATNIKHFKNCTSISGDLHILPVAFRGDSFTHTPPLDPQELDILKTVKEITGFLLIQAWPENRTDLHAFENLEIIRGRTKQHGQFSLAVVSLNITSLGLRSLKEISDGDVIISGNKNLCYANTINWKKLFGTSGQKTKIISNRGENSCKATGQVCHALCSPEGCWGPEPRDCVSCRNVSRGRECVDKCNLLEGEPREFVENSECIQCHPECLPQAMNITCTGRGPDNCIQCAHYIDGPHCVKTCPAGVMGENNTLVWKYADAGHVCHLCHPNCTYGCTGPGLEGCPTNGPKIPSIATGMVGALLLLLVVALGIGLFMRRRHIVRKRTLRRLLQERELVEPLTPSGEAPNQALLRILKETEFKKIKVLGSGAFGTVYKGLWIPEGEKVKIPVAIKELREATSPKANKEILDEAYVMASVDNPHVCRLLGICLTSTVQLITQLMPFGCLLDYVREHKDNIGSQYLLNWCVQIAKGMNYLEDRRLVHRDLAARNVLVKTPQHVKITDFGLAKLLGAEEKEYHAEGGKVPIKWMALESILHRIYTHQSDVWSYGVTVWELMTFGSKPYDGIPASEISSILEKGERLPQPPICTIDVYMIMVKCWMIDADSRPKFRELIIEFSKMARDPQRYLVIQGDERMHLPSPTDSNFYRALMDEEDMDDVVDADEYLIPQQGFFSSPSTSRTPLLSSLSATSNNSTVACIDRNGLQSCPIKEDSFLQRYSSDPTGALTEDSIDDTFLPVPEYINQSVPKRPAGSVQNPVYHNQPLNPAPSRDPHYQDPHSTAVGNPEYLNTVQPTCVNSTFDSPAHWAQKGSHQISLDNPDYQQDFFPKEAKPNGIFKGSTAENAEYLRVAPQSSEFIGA
assay info: Cellular EGFR phosphorylation assay (LANCE Ultra TR-FRET) in A431 cells
Assay type: cell-based
measurement context: 4 hours at 37° C., 40 ng/mL EGF for the final 10 minutes, read-out: A431 pEGFR IC50
Method: Cellular EGFR Phosphorylation Assays EGFR phosphorylation assays were conducted in NSCLC cells with EGFR activation mutations. […] EGFR phosphorylation was measured using phospho-EGFR (Try1068) LANCE Ultra TR-FRET Detection Kit (TRF4015M) from PerkinElmer according to manufacturer's instructions. […] After 4-6 hours of incubation at room temperature, plates were then read on a TECAN Sparks multimode microplate reader. […]
measure: IC50 (nM)
Give bare numbers, in nM.

CCN(C)c1nn([C@@H](C)CO)c2c1/C=C/c1n[nH]c3cnc(cc13)-c1c(C)nn(C)c1O[C@@H](C)CN(C)C2 = 365

Record IC50 for all entries; do not skip any.
1. CCN1Cc2c(c(OCC#N)nn2[C@@H](C)CO)/C=C/c2n[nH]c3c(C)nc(cc23)-c2c(C)nn(C)c2O[C@@H](C)C1
2. Cc1nn(C)c2c1-c1cc3c(n[nH]c3c(C)n1)/C=C/c1c(OCC#N)nn([C@@H](C)CO)c1CN(CC(F)F)C[C@H](C)O2

Reply:
1. 40.5
2. 26.6

Record IC50 for all entries; do not skip any.
1. CC(C)Oc1nn(CCO)c2c1/C=C/c1n[nH]c3cnc(cc13)-c1cnn(C)c1OC[C@H](C)N(C(C)C)C2
2. CCOc1nn(CCO)c2c1/C=C/c1n[nH]c3cnc(cc13)-c1c(c(C)nn1C)OCCN(C)C2
3. CNc1nn([C@@H](C)CO)c2c1/C=C/c1n[nH]c3c(C)nc(cc13)-c1c(C)nn(C)c1O[C@@H](C)CN(C)C2
4. CCOc1nn([C@@H](C)CO)c2c1/C=C/c1n[nH]c3c(C)nc(cc13)-c1c(C)nn(C)c1O[C@@H](C)CN(C)C2

Reply:
[442, 160, 34.7, 10.7]

###

test target: pEGFR, PC-9 cells (d746-750 EGFR) (Homo sapiens, UniProt P00533, DEL746-750)
Construct: pEGFR (Tyr1068) TR-FRET
Sequence (P00533 with tags, fused parts or gaps DEL746-750): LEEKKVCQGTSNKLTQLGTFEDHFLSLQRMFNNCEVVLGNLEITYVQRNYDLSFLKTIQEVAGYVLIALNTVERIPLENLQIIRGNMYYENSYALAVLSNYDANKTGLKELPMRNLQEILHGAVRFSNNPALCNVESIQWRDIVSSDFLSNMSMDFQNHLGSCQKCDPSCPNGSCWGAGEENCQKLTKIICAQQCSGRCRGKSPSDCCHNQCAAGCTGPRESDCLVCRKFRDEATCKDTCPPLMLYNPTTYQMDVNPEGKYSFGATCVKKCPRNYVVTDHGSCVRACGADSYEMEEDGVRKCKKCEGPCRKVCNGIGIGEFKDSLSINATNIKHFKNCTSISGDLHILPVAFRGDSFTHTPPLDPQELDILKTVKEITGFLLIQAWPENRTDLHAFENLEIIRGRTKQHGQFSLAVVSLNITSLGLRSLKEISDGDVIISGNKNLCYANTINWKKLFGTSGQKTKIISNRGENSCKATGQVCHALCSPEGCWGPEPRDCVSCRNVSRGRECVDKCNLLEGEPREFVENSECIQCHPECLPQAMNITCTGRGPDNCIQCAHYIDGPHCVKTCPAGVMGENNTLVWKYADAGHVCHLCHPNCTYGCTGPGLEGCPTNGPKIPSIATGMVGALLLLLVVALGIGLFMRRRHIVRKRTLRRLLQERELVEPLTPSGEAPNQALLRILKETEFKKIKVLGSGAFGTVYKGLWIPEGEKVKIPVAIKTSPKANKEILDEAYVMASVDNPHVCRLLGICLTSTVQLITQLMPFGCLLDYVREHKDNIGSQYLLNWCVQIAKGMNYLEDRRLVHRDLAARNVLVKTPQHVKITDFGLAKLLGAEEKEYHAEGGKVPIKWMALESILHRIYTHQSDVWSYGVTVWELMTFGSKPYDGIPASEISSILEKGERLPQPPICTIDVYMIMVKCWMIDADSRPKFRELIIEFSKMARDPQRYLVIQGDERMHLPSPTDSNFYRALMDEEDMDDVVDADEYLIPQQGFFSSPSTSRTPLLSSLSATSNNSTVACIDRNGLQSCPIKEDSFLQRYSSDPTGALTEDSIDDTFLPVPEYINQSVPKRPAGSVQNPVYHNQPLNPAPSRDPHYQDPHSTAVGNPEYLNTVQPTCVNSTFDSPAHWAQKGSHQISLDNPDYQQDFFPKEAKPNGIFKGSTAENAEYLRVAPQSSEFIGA
assay info: Cellular EGFR phosphorylation assay (LANCE Ultra TR-FRET) in PC-9 cells
Assay type: cell-based
measurement context: read-out: PC-9 pEGFR IC50, 4 hours at 37° C.
measure: IC50
Write your answer as a measured quantity: the number, then the unit.

Ask: Give the reported IC50 for this molecule. CCNc1nn([C@@H](C)CO)c2c1/C=C/c1n[nH]c3c(C)nc(cc13)-c1c(C)nn(C)c1O[C@@H](C)CN(C)C2
Reply: 2.31 nM

###

test target: EGFR (L858R) (Homo sapiens, UniProt P00533, L858R)
Sequence (P00533 25-1210 L858R): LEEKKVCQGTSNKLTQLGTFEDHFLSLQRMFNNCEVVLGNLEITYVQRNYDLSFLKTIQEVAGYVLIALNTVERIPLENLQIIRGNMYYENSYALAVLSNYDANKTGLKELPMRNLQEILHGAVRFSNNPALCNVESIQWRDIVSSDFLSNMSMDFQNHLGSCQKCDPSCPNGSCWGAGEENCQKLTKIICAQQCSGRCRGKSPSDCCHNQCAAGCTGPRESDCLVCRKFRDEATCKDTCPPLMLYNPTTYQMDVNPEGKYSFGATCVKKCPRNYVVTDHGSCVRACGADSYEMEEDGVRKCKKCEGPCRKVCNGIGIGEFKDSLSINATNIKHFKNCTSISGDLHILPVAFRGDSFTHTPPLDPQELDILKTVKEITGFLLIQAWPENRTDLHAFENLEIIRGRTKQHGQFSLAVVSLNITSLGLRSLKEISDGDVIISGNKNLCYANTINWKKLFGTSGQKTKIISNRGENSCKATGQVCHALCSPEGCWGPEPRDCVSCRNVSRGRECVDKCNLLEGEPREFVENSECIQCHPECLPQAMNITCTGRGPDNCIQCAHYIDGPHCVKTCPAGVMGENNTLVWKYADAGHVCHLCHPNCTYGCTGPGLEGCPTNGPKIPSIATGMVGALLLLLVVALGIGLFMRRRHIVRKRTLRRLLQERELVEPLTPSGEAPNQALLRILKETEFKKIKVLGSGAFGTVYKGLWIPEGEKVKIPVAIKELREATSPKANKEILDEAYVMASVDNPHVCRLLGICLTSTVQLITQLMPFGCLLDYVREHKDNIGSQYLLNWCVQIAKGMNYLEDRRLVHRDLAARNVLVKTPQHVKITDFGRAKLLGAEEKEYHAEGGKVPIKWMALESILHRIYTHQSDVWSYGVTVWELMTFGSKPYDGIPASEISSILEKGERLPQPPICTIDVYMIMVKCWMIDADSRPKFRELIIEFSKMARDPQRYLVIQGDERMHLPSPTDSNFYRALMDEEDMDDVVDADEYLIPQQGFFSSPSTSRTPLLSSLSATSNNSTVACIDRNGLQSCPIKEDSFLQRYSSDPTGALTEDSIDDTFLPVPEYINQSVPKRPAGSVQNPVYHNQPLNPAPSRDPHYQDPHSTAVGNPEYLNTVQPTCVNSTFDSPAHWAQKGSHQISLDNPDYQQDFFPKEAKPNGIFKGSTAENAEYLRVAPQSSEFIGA
assay info: HotSpot radiometric kinase assay, inhibition of EGFR L858R mutant
Type: biochemical
measurement context: 33P ATP, room temperature, 120 m
Assign labels as follows, please: Yes for IC50 below 300 pM; No for IC50 equal to or exceeding 300 pM.

Worked examples follow.
Cc1nn(CCO)c2c1/C=C/c1n[nH]c3cnc(cc13)-c1c(C)nn(C)c1O[C@@H](C)CN(C(C)C)C2 = Yes
CCOc1nn([C@@H](C)CO)c2c1/C=C/c1n[nH]c3cnc(cc13)-c1c(C)nn(C)c1O[C@H](C)CN(CC)C2 = No
CCN1Cc2c(c(OC(C)C)nn2CCO)/C=C/c2n[nH]c3cnc(cc23)-c2cnn(C)c2O[C@H](C)C1 = No

Ask: Strictly below 300 pM in IC50? CCOc1nn(CCO)c2c1/C=C/c1n[nH]c3cnc(cc13)-c1c(C)nn(C)c1O[C@H](C)CN(C(C)C)C2
Reply: No

Ask: Strictly below 300 pM in IC50? CCOc1nn([C@@H](C)CO)c2c1/C=C/c1n[nH]c3c(C)nc(cc13)-c1c(C)nn(C)c1O[C@@H](C)CN(C)C2
Reply: No

Ask: Strictly below 300 pM in IC50? Cc1nn(C)c2c1-c1cc3c(n[nH]c3cn1)/C=C/c1c(OCC#N)nn(CCO)c1CN(C)C[C@H](C)O2
Reply: No

Ask: Strictly below 300 pM in IC50? CCOc1nn([C@@H](C)CO)c2c1/C=C/c1n[nH]c3cnc(cc13)-c1cnn(C)c1O[C@@H](C)CN(C)C2
Reply: Yes

###

test target: pEGFR, PC-9 cells (d746-750 EGFR) (Homo sapiens, UniProt P00533, DEL746-750)
Construct: pEGFR (Tyr1068) TR-FRET
assay info: Cellular EGFR phosphorylation assay (LANCE Ultra TR-FRET) in PC-9 cells
Type: cell-based
measurement context: 4 hours at 37° C., read-out: PC-9 pEGFR IC50
Assign labels as follows, please: 1 (yes) for IC50 below 2 nM; 0 (no) for IC50 equal to or exceeding 2 nM.

CCOc1nn([C@@H](C)CO)c2c1/C=C/c1n[nH]c3c(C)nc(cc13)-c1c(C)nn(C)c1O[C@H](C)[C@H]1CCCN1C2 = 1 (yes)

Ask: Strictly below 2 nM in IC50? Cc1nn(C)c2c1/C=C/c1n[nH]c3c(C)nc(cc13)-c1c(C)nn(C)c1O[C@@H](C)CN(C(C)C)C2
Reply: 0 (no)

Ask: Strictly below 2 nM in IC50? CCOc1nn(CCO)c2c1/C=C/c1n[nH]c3cnc(cc13)-c1c(c(C)nn1C)OCCN(C)C2
Reply: 0 (no)

Ask: Strictly below 2 nM in IC50? CCOc1nn([C@@H](C)CO)c2c1/C=C/c1n[nH]c3cnc(cc13)-c1c(C)nn(C)c1O[C@H](C)CN(CC)C2
Reply: 1 (yes)

Ask: Strictly below 2 nM in IC50? CCOc1nn([C@@H](C)CO)c2c1/C=C/c1n[nH]c3cnc(cc13)-c1c(CC)nn(C)c1O[C@@H](C)CN(C)C2
Reply: 0 (no)

Ask: Strictly below 2 nM in IC50? CCN1Cc2c(c(OCC#N)nn2[C@@H](C)CO)/C=C/c2n[nH]c3cnc(cc23)-c2c(C)nn(C)c2O[C@H](C)C1
Reply: 1 (yes)

Ask: Strictly below 2 nM in IC50? CCOc1nn([C@@H](C)CO)c2c1/C=C/c1n[nH]c3cnc(cc13)-c1cnn(C)c1O[C@@H](C)CN(C)C2
Reply: 0 (no)
